System: Alternaria solani
TEST_DETAILS: Fungicidal activity against Alternaria solani assessed as growth inhibition at 50 ug/ml at 23 degC after 3 days
Assay type: functional
RUN_PARAMETERS: 72 h, read-out: GI
Measured inhibition of growth at 50 µg/mL, listed per entry.
// units = %; emit number, no label

Worked set:
1) COc1ccc(Oc2c(/C=N/OCc3cnc(Cl)s3)c(C(F)(F)F)nn2C)cc1	14.6
2) Cn1nc(C(F)(F)F)c(/C=N/OCc2cnc(Cl)s2)c1Oc1ccccc1	65.6
3) CC(C)(C)C(=O)C(Oc1ccc(Cl)cc1)n1cncn1 (stereo not given)	66.1
4) Cn1nc(C(F)(F)F)c(/C=N/OCc2cnc(Cl)s2)c1Sc1ccc(Cl)cc1	28.8

Please look at the following compound next.
Quick one: inhibition of growth at 50 µg/mL for Cn1nc(C(F)(F)F)c(/C=N/OCc2cnc(Cl)s2)c1Sc1ccccc1 ?
43.5
